Just for reference, the supplement of paper PMC4466140 is where these values come from.

Listing of recorded SPOT peptide array binding signal intensity by entry.
Target: CaRvs167-3
Assay: SPOT peptide array binding signal intensity (averaged, normalized) (arbitrary units (background-subtracted, floor 0; scale differs between SH3 domains)); higher = stronger binding of the SH3 domain to the peptide
No unit in the answer, only the number.

{"columns": ["binder", "result.value"],
 "data": [
  ["RSLRKRPTSPSISGS", 210],
  ["NPLPKEPRLPKRKVA", 4.5],
  ["DKSRPPRPPPKPLHL", 2],
  ["ISNFVPPNLPMRRFK", 6.25],
  ["QLLNPNRRAPRRPLS", 5.25],
  ["TKHKAPPPPPPTAET", 4]
]}

Exercise: Record request: SPOT peptide array binding signal intensity value, item LLRRTIPKRPFYHVL
Solution: 92
